The values you see were collected from patent US20220340678A1.

- tested_system: biotinylated human uPAR (human, UniProt Q03405 23-303, limits assumed, biotinylated (site not stated))
- test_protocol: BLI (Octet) on biotinylated human uPAR; row 'None': no first antibody
quantity: response in competition assay
Output: the number by itself.

Prompt: Which response in competition assay is listed for M1 (antibody, V domains shown, Mouse hybridoma antibody; also called anti-uPAR antibody M1; parental M1) VH: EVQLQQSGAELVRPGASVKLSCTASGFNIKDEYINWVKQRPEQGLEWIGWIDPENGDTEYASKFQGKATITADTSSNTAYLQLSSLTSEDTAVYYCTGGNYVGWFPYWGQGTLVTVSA VL: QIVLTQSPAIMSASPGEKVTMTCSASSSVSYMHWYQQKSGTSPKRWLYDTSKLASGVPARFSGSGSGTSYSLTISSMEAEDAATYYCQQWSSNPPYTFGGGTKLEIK ?
Completion: 0.305
